Test system: 922993-354-T-J3-PDC complex spheroids, viability
Assay: Anticancer human tumor 922993-354-T-J3-PDC patient-derived endometrial carcinoma cell line growth inhibition [GQUAD]
Conditions: second compound 1 µM; first compound 10 µM; stronger effect = lower value

{"MOLECULE": "O=c1[nH]cc(F)c(=O)[nH]1 + Cc1cnc(CNC(=O)c2c(=O)c3ccc(N4CCCN(C)CC4)nc3n3c2sc2ccccc23)cn1", "UNIT_INFO": "%", "viability, T/C": 44.9}
{"MOLECULE": "C=CC(=O)N1CCN(c2nc(=O)n(-c3c(C)ccnc3C(C)C)c3nc(-c4c(O)cccc4F)c(F)cc23)C(C)C1 (stereo not given) + CN(C)c1ccc(Nc2c3ccc(NC(=O)CCN4CCCC4)cc3nc3cc(NC(=O)CCN4CCCC4)ccc23)cc1", "UNIT_INFO": "%", "viability, T/C": 120}
{"MOLECULE": "Cc1cccc(N(C)C(=O)C2C(O)CCN2c2nc(C)cc(C(F)(F)F)c2C#N)c1 (stereo not given) + CN(C)c1ccc(Nc2c3ccc(NC(=O)CCN4CCCC4)cc3nc3cc(NC(=O)CCN4CCCC4)ccc23)cc1", "UNIT_INFO": "%", "viability, T/C": 82.1}
{"MOLECULE": "O=C(NO)c1cnc(N2CCN(S(=O)(=O)c3ccc4ccccc4c3)CC2)nc1 + Cc1[nH]c2ccc(F)cc2c1-c1nc2c3cccnc3c3ncccc3c2[nH]1", "UNIT_INFO": "%", "viability, T/C": 0.62}
{"MOLECULE": "COc1cccc2c1C(=O)c1c(O)c3c(c(O)c1C2=O)CC(O)(C(=O)CO)CC3OC1CC(N)C(O)C(C)O1 (stereo not given) + Cc1cnc(CNC(=O)c2c(=O)c3ccc(N4CCCN(C)CC4)nc3n3c2sc2ccccc23)cn1", "UNIT_INFO": "%", "viability, T/C": 38.8}
{"MOLECULE": "CC(C)n1c(=O)n(C)c2cnc3cc(F)c(-c4ccc(OCCCN5CCCCC5)nc4)cc3c21 + Cc1[nH]c2ccc(F)cc2c1-c1nc2c3cccnc3c3ncccc3c2[nH]1", "UNIT_INFO": "%", "viability, T/C": 75.9}
{"MOLECULE": "CC1COCCN1c1cc(-c2ccnn2C)c2ccnc(-c3ccn[nH]3)c2n1 (stereo not given) + Cc1cnc(CNC(=O)c2c(=O)c3ccc(N4CCCN(C)CC4)nc3n3c2sc2ccccc23)cn1", "UNIT_INFO": "%", "viability, T/C": 6.94}
{"MOLECULE": "CC(C)n1c(=O)n(C)c2cnc3cc(F)c(-c4ccc(OCCCN5CCCCC5)nc4)cc3c21 + Cc1cnc(CNC(=O)c2c(=O)c3ccc(N4CCCN(C)CC4)nc3n3c2sc2ccccc23)cn1", "UNIT_INFO": "%", "viability, T/C": 38.6}
{"MOLECULE": "O=C(c1cc(Cc2n[nH]c(=O)c3ccccc23)ccc1F)N1CCN(C(=O)C2CC2)CC1 + Cc1[nH]c2ccc(F)cc2c1-c1nc2c3cccnc3c3ncccc3c2[nH]1", "UNIT_INFO": "%", "viability, T/C": 68.3}
{"MOLECULE": "C=CCn1c(=O)c2cnc(Nc3ccc(N4CCN(C)CC4)cc3)nc2n1-c1cccc(C(C)(C)O)n1 + Cc1cnc(CNC(=O)c2c(=O)c3ccc(N4CCCN(C)CC4)nc3n3c2sc2ccccc23)cn1", "UNIT_INFO": "%", "viability, T/C": 44.1}
{"MOLECULE": "CC(=O)O[C@H]1C(=O)[C@@]2(C)[C@H]([C@H](OC(=O)c3ccccc3)[C@]3(O)C[C@H](OC(=O)[C@H](O)[C@@H](NC(=O)c4ccccc4)c4ccccc4)C(C)=C1C3(C)C)[C@]1(OC(C)=O)CO[C@@H]1C[C@@H]2O + CN(C)c1ccc(Nc2c3ccc(NC(=O)CCN4CCCC4)cc3nc3cc(NC(=O)CCN4CCCC4)ccc23)cc1", "UNIT_INFO": "%", "viability, T/C": 51.8}
{"MOLECULE": "C=CC(=O)N1CCN(c2nc(=O)n(-c3c(C)ccnc3C(C)C)c3nc(-c4c(O)cccc4F)c(F)cc23)C(C)C1 (stereo not given) + Cc1cnc(CNC(=O)c2c(=O)c3ccc(N4CCCN(C)CC4)nc3n3c2sc2ccccc23)cn1", "UNIT_INFO": "%", "viability, T/C": 55.1}
{"MOLECULE": "CC1COCCN1c1cc(C2(O)CC3CCC(C2)O3)c2cnn(-c3ccn[nH]3)c2n1 (stereo not given) + CN(C)c1ccc(Nc2c3ccc(NC(=O)CCN4CCCC4)cc3nc3cc(NC(=O)CCN4CCCC4)ccc23)cc1", "UNIT_INFO": "%", "viability, T/C": 19.7}
{"MOLECULE": "Cc1cccc(N(C)C(=O)C2C(O)CCN2c2nc(C)cc(C(F)(F)F)c2C#N)c1 (stereo not given) + Cc1cnc(CNC(=O)c2c(=O)c3ccc(N4CCCN(C)CC4)nc3n3c2sc2ccccc23)cn1", "UNIT_INFO": "%", "viability, T/C": 53.5}
{"MOLECULE": "COc1ncnc(C2CC2)c1-c1ncc2cnn(Cc3ccc(-c4nc(C(F)(F)F)cn4C(C)C)cc3)c2n1 + CN(C)c1ccc(Nc2c3ccc(NC(=O)CCN4CCCC4)cc3nc3cc(NC(=O)CCN4CCCC4)ccc23)cc1", "UNIT_INFO": "%", "viability, T/C": 76.8}
{"MOLECULE": "CC1COCCN1c1cc(C2(S(C)(=N)=O)CC2)nc(-c2ccnc3[nH]ccc23)n1 (stereo not given) + CN(C)c1ccc(Nc2c3ccc(NC(=O)CCN4CCCC4)cc3nc3cc(NC(=O)CCN4CCCC4)ccc23)cc1", "UNIT_INFO": "%", "viability, T/C": 76.2}
{"MOLECULE": "CCCS(=O)(=O)Nc1ccc(F)c(C(=O)c2c[nH]c3ncc(-c4ccc(Cl)cc4)cc23)c1F + Cc1cnc(CNC(=O)c2c(=O)c3ccc(N4CCCN(C)CC4)nc3n3c2sc2ccccc23)cn1", "UNIT_INFO": "%", "viability, T/C": 48.2}
{"MOLECULE": "COc1cccc2c1C(=O)c1c(O)c3c(c(O)c1C2=O)CC(O)(C(=O)CO)CC3OC1CC(N)C(O)C(C)O1 (stereo not given) + Cc1[nH]c2ccc(F)cc2c1-c1nc2c3cccnc3c3ncccc3c2[nH]1", "UNIT_INFO": "%", "viability, T/C": 53.8}
{"MOLECULE": "CCCS(=O)(=O)Nc1ccc(F)c(C(=O)c2c[nH]c3ncc(-c4ccc(Cl)cc4)cc23)c1F + Cc1[nH]c2ccc(F)cc2c1-c1nc2c3cccnc3c3ncccc3c2[nH]1", "UNIT_INFO": "%", "viability, T/C": 56.7}
{"MOLECULE": "COc1ncnc(C2CC2)c1-c1ncc2cnn(Cc3ccc(-c4nc(C(F)(F)F)cn4C(C)C)cc3)c2n1 + Cc1[nH]c2ccc(F)cc2c1-c1nc2c3cccnc3c3ncccc3c2[nH]1", "UNIT_INFO": "%", "viability, T/C": 95.1}

====

Tested on: 922993-354-T-J3-PDC complex spheroids, viability
Experiment: Anticancer human tumor 922993-354-T-J3-PDC cell line growth inhibition [GQUAD];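 further: spheroids exposed to compounds for seven days; 100% = DMSO vehicle control viability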
Conditions: second compound 0.1 µM; first compound 0.316 µM; stronger effect = lower value
PROPERTY_MEASURED: viability, T/C

{"MOLECULE": "COc1cccc2c1C(=O)c1c(O)c3c(c(O)c1C2=O)CC(O)(C(=O)CO)CC3OC1CC(N)C(O)C(C)O1 (stereo not given) + CN(C)c1ccc(Nc2c3ccc(NC(=O)CCN4CCCC4)cc3nc3cc(NC(=O)CCN4CCCC4)ccc23)cc1", "ENDPOINT_VALUE": "90.6%"}
{"MOLECULE": "Cn1ncnc1[C@H]1c2n[nH]c(=O)c3cc(F)cc(c23)N[C@@H]1c1ccc(F)cc1 + CN(C)c1ccc(Nc2c3ccc(NC(=O)CCN4CCCC4)cc3nc3cc(NC(=O)CCN4CCCC4)ccc23)cc1", "ENDPOINT_VALUE": "55.4%"}
{"MOLECULE": "C#Cc1c(F)ccc2cc(O)cc(-c3ncc4c(N5CC6CCC(C5)N6)nc(OCC56CCCN5CC(F)C6)nc4c3F)c12 (stereo not given) + Cc1cnc(CNC(=O)c2c(=O)c3ccc(N4CCCN(C)CC4)nc3n3c2sc2ccccc23)cn1", "ENDPOINT_VALUE": "56%"}
{"MOLECULE": "CC(C)n1c(=O)n(C)c2cnc3cc(F)c(-c4ccc(OCCCN5CCCCC5)nc4)cc3c21 + Cc1cnc(CNC(=O)c2c(=O)c3ccc(N4CCCN(C)CC4)nc3n3c2sc2ccccc23)cn1", "ENDPOINT_VALUE": "44.9%"}
{"MOLECULE": "CC1COCCN1c1cc(-c2ccnn2C)c2ccnc(-c3ccn[nH]3)c2n1 (stereo not given) + Cc1[nH]c2ccc(F)cc2c1-c1nc2c3cccnc3c3ncccc3c2[nH]1", "ENDPOINT_VALUE": "45.9%"}
{"MOLECULE": "COc1ccc([C@@H](O)c2cc(-c3ncnc4cc(N5CCOCC5)ccc34)c(F)cc2Cl)nn1 + Cc1[nH]c2ccc(F)cc2c1-c1nc2c3cccnc3c3ncccc3c2[nH]1", "ENDPOINT_VALUE": "114%"}
{"MOLECULE": "CC1COCCN1c1cc(C2(O)CC3CCC(C2)O3)c2cnn(-c3ccn[nH]3)c2n1 (stereo not given) + Cc1[nH]c2ccc(F)cc2c1-c1nc2c3cccnc3c3ncccc3c2[nH]1", "ENDPOINT_VALUE": "62.2%"}
{"MOLECULE": "CCCS(=O)(=O)Nc1ccc(F)c(C(=O)c2c[nH]c3ncc(-c4ccc(Cl)cc4)cc23)c1F + CN(C)c1ccc(Nc2c3ccc(NC(=O)CCN4CCCC4)cc3nc3cc(NC(=O)CCN4CCCC4)ccc23)cc1", "ENDPOINT_VALUE": "95%"}
{"MOLECULE": "COc1ccc([C@@H](O)c2cc(-c3ncnc4cc(N5CCOCC5)ccc34)c(F)cc2Cl)nn1 + Cc1cnc(CNC(=O)c2c(=O)c3ccc(N4CCCN(C)CC4)nc3n3c2sc2ccccc23)cn1", "ENDPOINT_VALUE": "67.7%"}
{"MOLECULE": "COc1ncnc(C2CC2)c1-c1ncc2cnn(Cc3ccc(-c4nc(C(F)(F)F)cn4C(C)C)cc3)c2n1 + Cc1cnc(CNC(=O)c2c(=O)c3ccc(N4CCCN(C)CC4)nc3n3c2sc2ccccc23)cn1", "ENDPOINT_VALUE": "45.6%"}
